Experiment: Reversal of ABCG2 (unknown origin)-mediated multidrug resistance in human H460-MX20 cells assessed as effect on topotecan-induced cytotoxicity by measuring topotecan IC50 at 3 uM after 72 hrs by MTT assay (Rvb = 1319.20 +/- 356.14 nM)
measured.parameter: IC50 (nM)
Just the number in nM, nothing appended.

Can you look up the measured IC50 of "C=CC(C)(C)c1cc(/C=C/C(=O)c2ccc(O)cc2)c(OC)cc1O" for me?
130

====

Assay: Reversal of ABCG2 (unknown origin)-mediated multidrug resistance in human H460-MX20 cells assessed as effect on topotecan-induced cytotoxicity by measuring topotecan IC50 at 0.5 uM after 72 hrs by MTT assay (Rvb = 1319.20 +/- 356.14 nM)
measured.parameter: IC50

Can you look up the measured IC50 of "C=CC(C)(C)c1cc(/C=C/C(=O)c2ccc(O)cc2)c(OC)cc1O" for me?
367 nM
